Origin of measurements: ChEMBL document CHEMBL1136564

System: HEp-2
TEST_DESCRIPTION: In vitro cytotoxic concentration against Hep2 cells.
Type: functional
CONDITIONS_USED: Homo sapiens
RECORDED_METRIC: CC50 (µg/mL)

[[record]]
chemical_string = "CC(C)CCCC#CC(=O)C12C[C@@H]3[C@H](C)CC[C@H]3C3(C=O)CC1C=C(C(C)C)[C@@]23C(=O)O"
value_qualifier = "="
value_measured = 1.4

[[record]]
chemical_string = "CC(C)C1=CC2CC3(C=O)[C@@H]4CC[C@@H](C)[C@H]4CC2(C(=O)CC2CCCCC2)[C@]13C(=O)O"
value_qualifier = "="
value_measured = 1.8

[[record]]
chemical_string = "CC(C)CCC(=O)C12C[C@@H]3[C@H](C)CC[C@H]3C3(C=O)CC1C=C(C(C)C)[C@@]23C(=O)O"
value_qualifier = "="
value_measured = 2.5

[[record]]
chemical_string = "CC(C)C1=CC2CC3(C=O)[C@@H]4CC[C@@H](C)[C@H]4CC2(C(=O)C#Cc2ccccc2)[C@]13C(=O)O"
value_qualifier = ">"
value_measured = 12


----------
Recorded CC50, one value per entry.
Test system: HEp-2
TEST_DESCRIPTION: In vitro cytotoxic concentration against Hep2 cells.
Format: functional
CONDITIONS_USED: Homo sapiens
RECORDED_METRIC: CC50 (µg/mL)

[[record]]
compound = "CC(C)C1=CC2CC3(C=O)[C@@H]4CC[C@@H](C)[C@H]4CC2(C(O)C#CCC2CCCCC2)[C@]13C(=O)O (some centres not stated)"
value_measured = 10.7

[[record]]
compound = "CCCCCCC(O)C12C[C@@H]3[C@H](C)CC[C@H]3C3(C=O)CC1C=C(C(C)C)[C@@]23C(=O)O (some centres not stated)"
value_measured = 2.4

[[record]]
compound = "CC(C)C1=CC2CC3(C=O)[C@@H]4CC[C@@H](C)[C@H]4CC2(C(=O)CCC2CCCCC2)[C@]13C(=O)O"
value_measured = 1.8

[[record]]
compound = "CC(C)C1=CC2CC3(C=O)[C@@H]4CC[C@@H](C)[C@H]4CC2(C(=O)C#CCC2CCCC2)[C@]13C(=O)O"
value_measured = 0.9

[[record]]
compound = "CCCCC#CC(=O)C12C[C@@H]3[C@H](C)CC[C@H]3C3(C=O)CC1C=C(C(C)C)[C@@]23C(=O)O"
value_measured = 3.3

[[record]]
compound = "CC(C)C1=CC2CC3(C=O)[C@@H]4CC[C@@H](C)[C@H]4CC2(C(O)CC2CCCCC2)[C@]13C(=O)O (some centres not stated)"
value_measured = 3.1

[[record]]
compound = "CC(C)CCC#CC(O)C12C[C@@H]3[C@H](C)CC[C@H]3C3(C=O)CC1C=C(C(C)C)[C@@]23C(=O)O (some centres not stated)"
value_measured = 15.8


----------
Test system: Candida albicans
TEST_DESCRIPTION: Minimum inhibitory concentration to inhibit 90 to 100% visible growth of Candida albicans
Assay type: functional
Label MET when MIC is strictly below 1 µg/mL; otherwise label NOT MET.

[[record]]
molecule = "CC(C)C1=CC2CC3(C=O)[C@@H]4CC[C@@H](C)[C@H]4CC2(C(O)C#CCC2CCCCC2)[C@]13C(=O)O (stereo partly specified)"
label_class = "MET"

[[record]]
molecule = "CC(C)C1=CC2CC3(C=O)C4CC[C@@H](C)C4CC2(CCOC(=O)c2cnc4ccccc4c2)C13C(=O)O (stereo partly specified)"
label_class = "NOT MET"

[[record]]
molecule = "CC(C)C1=CC2CC3(C=O)C4CC[C@@H](C)C4CC2(CCOC(=O)CNC(=O)OC(C)(C)C)C13C(=O)O (stereo partly specified)"
label_class = "NOT MET"

[[record]]
molecule = "CC(C)C1=CC2CC3(C=O)C4CC[C@@H](C)C4CC2(CCOC(=O)C2CCC2)C13C(=O)O (stereo partly specified)"
label_class = "MET"

[[record]]
molecule = "CSc1ccc(C(=O)OCCC23CC4C(CC[C@H]4C)C4(C=O)CC2C=C(C(C)C)C43C(=O)O)cc1 (stereo partly specified)"
label_class = "NOT MET"

[[record]]
molecule = "CCCOc1ccc(C(=O)OCCC23CC4C(CC[C@H]4C)C4(C=O)CC2C=C(C(C)C)C43C(=O)O)cc1 (stereo partly specified)"
label_class = "NOT MET"

[[record]]
molecule = "CC(=O)CCC(=O)OCCC12CC3C(CC[C@H]3C)C3(C=O)CC1C=C(C(C)C)C32C(=O)O (stereo partly specified)"
label_class = "NOT MET"

[[record]]
molecule = "CC(C)C1=CC2CC3(C=O)[C@@H]4CC[C@@H](C)[C@H]4CC2(C(=O)C#CCC2CCCC2)[C@]13C(=O)O"
label_class = "MET"

[[record]]
molecule = "CC(C)C1=CC2CC3(C=O)C4CC[C@@H](C)C4CC2(CCOC(=O)[C@H](NC(=O)OC(C)(C)C)c2ccccc2)C13C(=O)O (stereo partly specified)"
label_class = "NOT MET"

[[record]]
molecule = "CC(C)C1=CC2CC3(C=O)C4CC[C@@H](C)C4CC2(CCOC(=O)c2cc4ccccc4o2)C13C(=O)O (stereo partly specified)"
label_class = "NOT MET"

[[record]]
molecule = "CC(C)C1=CC2CC3(C=O)[C@@H]4CC[C@@H](C)[C@H]4CC2(C(O)CCc2ccccc2)[C@]13C(=O)O (stereo partly specified)"
label_class = "NOT MET"

[[record]]
molecule = "C=CCCCCC(=O)OCCC12CC3C(CC[C@H]3C)C3(C=O)CC1C=C(C(C)C)C32C(=O)O (stereo partly specified)"
label_class = "MET"


----------
System: Candida albicans
TEST_DESCRIPTION: Minimum inhibitory concentration to inhibit 90 to 100% visible growth of Candida albicans
Assay type: functional
RECORDED_METRIC: MIC

[[record]]
molecule = "CC(C)C1=CC2CC3(C=O)C4CC[C@@H](C)C4CC2(CCOC(=O)C2CCCCC2)C13C(=O)O (some centres undefined)"
value_measured = "< 0.06 µg/mL"

[[record]]
molecule = "CC(C)C1=CC2CC3(C=O)[C@@H]4CC[C@@H](C)[C@H]4CC2(C(=O)C#Cc2ccccc2)[C@]13C(=O)O"
value_measured = "> 128 µg/mL"

[[record]]
molecule = "CC(C)C1=CC2CC3(C=O)C4CC[C@@H](C)C4CC2(CCOC(=O)c2cc(C(=O)O)[nH]n2)C13C(=O)O (some centres undefined)"
value_measured = "> 128 µg/mL"

[[record]]
molecule = "CC(C)C1=CC2CC3(C=O)C4CC[C@@H](C)C4CC2(CCOC(=O)c2cc[n+]([O-])cc2)C13C(=O)O (some centres undefined)"
value_measured = "> 128 µg/mL"


----------
Tested on: Candida albicans
TEST_DESCRIPTION: Minimum inhibitory concentration to inhibit 90 to 100% visible growth of Candida albicans
Format: functional
RECORDED_METRIC: log10 of MIC (log10 of the value in µg/mL)

[[record]]
compound = "CC(C)C1=CC2CC3(C=O)C4CC[C@@H](C)C4CC2(CCOC(=O)[C@H](C)NC(=O)OC(C)(C)C)C13C(=O)O (stereo not given in full)"
value_measured = 1.51

[[record]]
compound = "CC(C)C1=CC2CC3(C=O)C4CC[C@@H](C)C4CC2(CCOC(=O)C2CCCC2)C13C(=O)O (stereo not given in full)"
value_measured = -0.90

[[record]]
compound = "CC(C)C1=CC2CC3(C=O)C4CC[C@@H](C)C4CC2(CCOC(=O)c2cccnc2)C13C(=O)O (stereo not given in full)"
value_measured = 1.20

[[record]]
compound = "CC(C)CCCCC(O)C12C[C@@H]3[C@H](C)CC[C@H]3C3(C=O)CC1C=C(C(C)C)[C@@]23C(=O)O (stereo not given in full)"
value_measured = 0.00

[[record]]
compound = "CC(C)C1=CC2CC3(C=O)C4CC[C@@H](C)C4CC2(CCOC(=O)c2ccc(C#N)cc2)C13C(=O)O (stereo not given in full)"
value_measured = 0.90

[[record]]
compound = "CC(C)C1=CC2CC3(C=O)C4CC[C@@H](C)C4CC2(CCOC(=O)c2ccc([N+](=O)[O-])cc2Cl)C13C(=O)O (stereo not given in full)"
value_measured = 2.11

[[record]]
compound = "CC(C)C1=CC2CC3(C=O)C4CC[C@@H](C)C4CC2(CCOC(=O)c2ccc(I)cc2)C13C(=O)O (stereo not given in full)"
value_measured = 0.30

[[record]]
compound = "CC(C)C1=CC2CC3(C=O)[C@@H]4CC[C@@H](C)[C@H]4CC2(C(O)C#Cc2ccccc2)[C@]13C(=O)O (stereo not given in full)"
value_measured = -0.60


----------
Recorded MIC, one value per entry.
System: Candida albicans
TEST_DESCRIPTION: Minimum inhibitory concentration to inhibit 90 to 100% visible growth of Candida albicans
Type: functional
RECORDED_METRIC: MIC (µg/mL)

[[record]]
compound = "CCCCCCCCCCCCCCCCC(=O)C12C[C@@H]3[C@H](C)CC[C@H]3C3(C=O)CC1C=C(C(C)C)[C@@]23C(=O)O"
subject_of_test = "Candida albicans"
recorded_metric = "MIC"
value_qualifier = ">"
value_measured = 128

[[record]]
compound = "CC(C)C1=CC2CC3(C=O)C4CC[C@@H](C)C4CC2(CCOC(=O)[C@@H]2CCCN2C(=O)OC(C)(C)C)C13C(=O)O (some centres undefined)"
subject_of_test = "Candida albicans"
recorded_metric = "MIC"
value_qualifier = "="
value_measured = 16

[[record]]
compound = "CC(C)=CC(=O)OCCC12CC3C(CC[C@H]3C)C3(C=O)CC1C=C(C(C)C)C32C(=O)O (some centres undefined)"
subject_of_test = "Candida albicans"
recorded_metric = "MIC"
value_qualifier = "="
value_measured = 0.5

[[record]]
compound = "CC(C)C1=CC2CC3(C=O)C4CC[C@@H](C)C4CC2(CCOC(=O)c2ccc(S(N)(=O)=O)cc2)C13C(=O)O (some centres undefined)"
subject_of_test = "Candida albicans"
recorded_metric = "MIC"
value_qualifier = ">"
value_measured = 128

